// provenance: ChEMBL document CHEMBL1154117

assay: Immunosuppressive activity in BALB/c mouse splenocytes assessed as inhibition of concanavalin A-induced cell proliferation at 100 uM after 48 hrs by MTT assay; assay type: functional; conditions: Splenocyte
experimental.endpoint: inhibition at 100 µM

Lab note: measured inhibition at 100 µM of `Cc1cc(=O)c2c(O)cc(O)cc2[nH]1` was 26.7%

inhibition at 100 µM for `COc1cc(OC)c2c(OC(=O)c3ccccc3Br)ccnc2c1` is 93.3%

For `COc1cc(OC)c2c(OC(=O)c3ccccc3OC)ccnc2c1` the compound record lists inhibition at 100 µM as 85.3%

Given item `CCCCC(=O)Oc1ccnc2cc(OC)cc(OC)c12` , the value recorded as its inhibition at 100 µM is 13.9%

The value of inhibition at 100 µM measured for the compound `COc1cc(OC)c2c(=O)cc(C)[nH]c2c1` turned out to be 57.2%

----------
experiment: Immunosuppressive activity in BALB/c mouse splenocytes assessed as inhibition of concanavalin A-induced cell proliferation at 100 uM after 48 hrs by MTT assay; assay type: functional; settings: Splenocyte
Kindly state inhibition at 100 µM for each of the entries shown.

The recorded inhibition at 100 µM for `COc1cc(OC)c2c(OC(=O)c3ccccc3F)ccnc2c1` is 31%

Form: molecule = `COC(=O)c1ccc(C(=O)Oc2ccnc3cc(OC)cc(OC)c23)cc1` ; inhibition at 100 µM = 91.4%

Item: `COc1cc(OC)c2c(OC(=O)c3cccc(I)c3)ccnc2c1` | inhibition at 100 µM: 85.2%

The reported value for `COc1cc(OC)c2c(OC(=O)c3ccc(Cl)cc3Cl)ccnc2c1` in terms of inhibition at 100 µM is 79.2%

# inhibition at 100 µM (molecule: `COc1cc(OC)c2c(OC(=O)c3ccccc3[N+](=O)[O-])ccnc2c1` ) is 90.5%

Lookup result for `COc1cc(OC)c2c(O[C@@H]3OC[C@@H](O)[C@H](O)[C@H]3O)ccnc2c1` ; measured inhibition at 100 µM: 41%

GET /value?item= `COc1cc(OC)c2c(OC(=O)c3ccc([N+](=O)[O-])cc3)ccnc2c1` &field=inhibition at 100 µM returns 64%

According to the records, this molecule `COc1cc(OC)c2c(OC(=O)c3ccccc3I)ccnc2c1` displays inhibition at 100 µM of 93%
